Test system: PPARg DBDmut:RXRa IVT, anti-PPARg (DBD mutation: PPARg1 K132A/R137A, NR concentration 270 nM, RXRa partner concentration 90 nM)
PROTOCOL DETAILS: PBM binding z-score (relative to random genomic background probes); higher = stronger binding; sequences stand for … in GC…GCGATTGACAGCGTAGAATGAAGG
MEASURED PROPERTY: PBM binding z-score
I only need the number, thanks.

1) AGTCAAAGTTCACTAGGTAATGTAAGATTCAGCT; 1.59
2) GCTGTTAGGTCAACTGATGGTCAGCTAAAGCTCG; 0.716
3) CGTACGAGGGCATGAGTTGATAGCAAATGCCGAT; -0.964
4) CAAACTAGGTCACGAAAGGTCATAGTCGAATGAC; 2.98
5) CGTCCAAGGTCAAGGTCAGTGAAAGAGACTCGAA; 0.429
6) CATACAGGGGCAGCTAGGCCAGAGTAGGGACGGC; -0.422

Exercise: Give recorded PBM binding z-score. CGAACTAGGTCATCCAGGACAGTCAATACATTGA
Key: 3.88

Exercise: Give recorded PBM binding z-score. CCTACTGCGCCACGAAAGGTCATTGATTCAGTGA
Key: 1.03

Exercise: Give recorded PBM binding z-score. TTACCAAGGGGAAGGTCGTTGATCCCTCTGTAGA
Key: -0.647

Exercise: Give recorded PBM binding z-score. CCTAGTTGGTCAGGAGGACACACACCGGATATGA
Key: -0.182

Exercise: Give recorded PBM binding z-score. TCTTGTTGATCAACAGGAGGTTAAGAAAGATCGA
Key: 1.15

Exercise: Give recorded PBM binding z-score. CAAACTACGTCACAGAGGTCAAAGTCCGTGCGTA
Key: 1.33

Exercise: Give recorded PBM binding z-score. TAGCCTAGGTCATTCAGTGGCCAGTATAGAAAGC
Key: 0.204

Exercise: Give recorded PBM binding z-score. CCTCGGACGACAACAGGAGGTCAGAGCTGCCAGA
Key: -0.728

Exercise: Give recorded PBM binding z-score. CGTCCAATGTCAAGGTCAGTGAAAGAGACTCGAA
Key: 0.404

Exercise: Give recorded PBM binding z-score. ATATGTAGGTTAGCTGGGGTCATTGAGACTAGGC
Key: 2.23

Exercise: Give recorded PBM binding z-score. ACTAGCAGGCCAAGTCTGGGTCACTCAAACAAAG
Key: -0.209

Data provenance is the supplement of paper PMC6555819.
